Molecular target: RAC-alpha serine/threonine-protein kinase (Homo sapiens, UniProt P31749)
Sequence (P31749 whole entry): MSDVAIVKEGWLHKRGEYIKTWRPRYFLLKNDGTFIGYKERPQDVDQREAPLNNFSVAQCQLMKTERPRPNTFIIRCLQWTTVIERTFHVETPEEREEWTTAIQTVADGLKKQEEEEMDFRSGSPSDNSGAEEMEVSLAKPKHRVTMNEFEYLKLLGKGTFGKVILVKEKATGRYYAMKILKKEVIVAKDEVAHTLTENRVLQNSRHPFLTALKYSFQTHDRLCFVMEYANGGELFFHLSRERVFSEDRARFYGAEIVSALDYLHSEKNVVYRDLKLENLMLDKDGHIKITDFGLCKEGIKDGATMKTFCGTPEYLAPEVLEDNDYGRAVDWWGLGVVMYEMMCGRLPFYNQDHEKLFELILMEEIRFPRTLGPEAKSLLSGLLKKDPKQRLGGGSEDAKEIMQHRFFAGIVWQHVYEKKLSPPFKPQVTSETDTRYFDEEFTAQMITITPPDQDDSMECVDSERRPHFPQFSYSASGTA
Test: Inhibition of AKT1
Kindly supply the reported IC50 values for the records listed here.
One number for each entry, in nM.

Field: example entries. Status: answers known.
- MOLECULE: "O=C(NC(c1ccc(Cl)c(Cl)c1)C1CCNCC1)c1ccc2cnccc2c1 (racemic)"
  QUANTITY UNIT: "nM"
  IC50: 40
- MOLECULE: "O=C(NC(c1ccc(Cl)c(Cl)c1)C1CCCCC1)c1ccc2cnccc2c1 (racemic)"
  QUANTITY UNIT: "nM"
  IC50: 5800
- MOLECULE: "O=C(NC(c1ccc2ccccc2c1)C1CCNCC1)c1ccc2cnccc2c1 (racemic)"
  QUANTITY UNIT: "nM"
  IC50: 400
- MOLECULE: "O=C(NC(c1ccc(Cl)c(Cl)c1)C1CCNCC1)c1ccc2[nH]ncc2c1 (racemic)"
  QUANTITY UNIT: "nM"
  IC50: 250

Could I get IC50 for every one of these entries?
1. O=C(NC(c1ccc(F)c(F)c1)C1CCNCC1)c1ccc2cnccc2c1 (racemic)
2. O=C1Cc2cc(C(=O)NC(c3ccc(Cl)c(Cl)c3)C3CCNCC3)ccc2N1 (racemic)
3. O=C(NC(c1ccncc1)c1ccc(Cl)c(Cl)c1)c1ccc2cnccc2c1 (racemic)
4. O=C(NC(c1cccc(Cl)c1Cl)C1CCNCC1)c1ccc2cnccc2c1 (racemic)

Found:
[2680, 350, 20400, 120]

----------
Assay: Clearance in rat
Type: ADME, organism-based
Details: in vivo
Provide the reported clearance of each item.

- COMPOUND: "O=C(NC(c1ccc(Cl)c(Cl)c1)C1CCNCC1)c1ccc2cnc(F)cc2c1 (racemic)"
  RESULT: "58.3 mL/min/kg"

Switching to the query record.
Lookup: State the recorded clearance for this entry: O=C(N[C@@H](c1ccc(Cl)c(Cl)c1)C1CNC1)c1ccc2cnccc2c1
Found: 173 mL/min/kg

----------
I'd appreciate it if you could supply pIC50 values for the items below.
Target: RAC-alpha serine/threonine-protein kinase (Homo sapiens, UniProt P31749)
Test: Inhibition of AKT1-mediated PRAS40 phosphorylation in human U87MG cells after 1 hr in presence of 5% FBS by ELISA assay
Format: cell-based, U-87MG ATCC
Numbers only, as −log10 of the molar value.

// solved cases for pIC50 follow
- COMPOUND: "O=C(N[C@@H](c1ccc(Cl)c(Cl)c1)C1CNC1)c1ccc2cnccc2c1"
  MEASURED ENDPOINT: "pIC50"
  READOUT NUMBER: 6.62
- COMPOUND: "N[C@H](CNc1nnc(-c2ccc3c(c2)CC(=O)N3)s1)Cc1ccc(C(F)(F)F)cc1"
  MEASURED ENDPOINT: "pIC50"
  READOUT NUMBER: 6.52

Lookup: Quick one: pIC50 for O=C(NC(c1ccc(Cl)c(Cl)c1)C1CCNCC1)c1ccc2cnc(F)cc2c1 (racemic) ?
Found: 6.41

----------
Target: RAC-alpha serine/threonine-protein kinase (Homo sapiens, UniProt P31749)
Experiment: Inhibition of AKT1
The label is yes (1) for IC50 below 200 nM and no (0) for IC50 equal to or exceeding 200 nM.

Answered cases to consult:
- MOLECULE: "O=C(NC(c1ccc(Cl)c(Cl)c1)C1CCNCC1)c1ccc2cnc(Cl)cc2c1 (racemic)"
  GROUP: "yes (1)"
- MOLECULE: "O=C(NC(c1ccc(Cl)c(Cl)c1)C1CCNCC1)c1ccc2cnncc2c1 (single isomer, unassigned)"
  GROUP: "no (0)"
- MOLECULE: "CN1CC([C@@H](NC(=O)c2ccc3cnccc3c2)c2ccc(Cl)c(Cl)c2)C1"
  GROUP: "yes (1)"

Lookup: Lab note: IC50 threshold 200 nM. Does this molecule come in strictly under it? N[C@H](CNC(=O)c1ccc2cnccc2c1)Cc1ccc(C(F)(F)F)cc1
Found: no (0)

Lookup: A record lists O=C(NC(c1cncnc1)c1ccc(Cl)c(Cl)c1)c1ccc2cnccc2c1 (racemic) . Is its IC50 below 200 nM?
Found: no (0)
